# Test system: PAE 105250
# method: MIC, broth microdilution (CLSI), substance alone or ATB combined with compound at 4 or 8 μg/mL
# Format: cell-based, P. aeruginosa
# particulars: PAE 105250; with Example 14 at 8 μg/ml
What MIC ATB combined with Example 14 @8 μg/ml was measured for each of the following?

Quick one: give measured MIC ATB combined with Example 14 @8 μg/ml for CO/N=C(\C(=O)N[C@@H]1C(=O)N2C(C(=O)O)=C(COC(N)=O)CS[C@H]12)c1ccco1 [FUR, Cefuroxime, reference compound]
>32 µg/mL

Given NCC[C@H](O)C(=O)N[C@@H]1C[C@H](N)[C@@H](O[C@H]2O[C@H](CN)[C@@H](O)[C@H](O)[C@H]2O)[C@H](O)[C@H]1O[C@H]1O[C@H](CO)[C@@H](O)[C@H](N)[C@H]1O [AN, Amikacin, reference compound] , respond with its MIC ATB combined with Example 14 @8 μg/ml.
1 µg/mL

Indicate its recorded MIC ATB combined with Example 14 @8 μg/ml; the molecule in question is CN(C)c1cc(NC(=O)CNC(C)(C)C)c(O)c2c1C[C@H]1C[C@H]3[C@H](N(C)C)C(O)=C(C(N)=O)C(=O)[C@@]3(O)C(O)=C1C2=O
8 µg/mL

Give me measured MIC ATB combined with Example 14 @8 μg/ml, please, for this molecule: CC1(C)S[C@@H]2[C@H](NC(=O)[C@H](N)c3ccc(O)cc3)C(=O)N2[C@H]1C(=O)O [AMX, Amoxicillin, reference compound]
>32 µg/mL

# return recorded MIC ATB combined with Example 14 @8 μg/ml for entry CO/N=C(\C(=O)N[C@@H]1C(=O)N2C(C(=O)O)=C(COC(C)=O)CS[C@H]12)c1csc(N)n1
>32 µg/mL

Indicate its recorded MIC ATB combined with Example 14 @8 μg/ml; the molecule in question is CO/N=C(\C(=O)N[C@@H]1C(=O)N2C(C(=O)O)=C(CSc3nc(=O)c(O)nn3C)CS[C@H]12)c1csc(N)n1
>32 µg/mL
